Record form. Attribute: pIC50. Fill in for each entry.
# Assay Target: Neuronal acetylcholine receptor; alpha3/beta4 (Rattus norvegicus, UniProt P04757+P12392)
# Sequence (P04757 whole entry): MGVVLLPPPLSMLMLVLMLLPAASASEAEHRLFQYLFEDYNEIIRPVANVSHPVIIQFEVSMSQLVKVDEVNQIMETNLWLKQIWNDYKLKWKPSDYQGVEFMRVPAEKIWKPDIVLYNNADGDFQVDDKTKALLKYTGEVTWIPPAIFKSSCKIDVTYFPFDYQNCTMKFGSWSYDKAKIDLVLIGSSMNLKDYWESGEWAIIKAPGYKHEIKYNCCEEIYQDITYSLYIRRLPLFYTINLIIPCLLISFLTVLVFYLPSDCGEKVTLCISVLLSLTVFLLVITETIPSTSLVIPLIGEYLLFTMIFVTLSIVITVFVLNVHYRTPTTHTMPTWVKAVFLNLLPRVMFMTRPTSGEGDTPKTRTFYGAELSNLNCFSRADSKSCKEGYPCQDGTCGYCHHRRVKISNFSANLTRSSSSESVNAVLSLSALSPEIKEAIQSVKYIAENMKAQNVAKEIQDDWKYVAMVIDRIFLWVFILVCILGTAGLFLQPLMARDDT
# Sequence (P12392 whole entry): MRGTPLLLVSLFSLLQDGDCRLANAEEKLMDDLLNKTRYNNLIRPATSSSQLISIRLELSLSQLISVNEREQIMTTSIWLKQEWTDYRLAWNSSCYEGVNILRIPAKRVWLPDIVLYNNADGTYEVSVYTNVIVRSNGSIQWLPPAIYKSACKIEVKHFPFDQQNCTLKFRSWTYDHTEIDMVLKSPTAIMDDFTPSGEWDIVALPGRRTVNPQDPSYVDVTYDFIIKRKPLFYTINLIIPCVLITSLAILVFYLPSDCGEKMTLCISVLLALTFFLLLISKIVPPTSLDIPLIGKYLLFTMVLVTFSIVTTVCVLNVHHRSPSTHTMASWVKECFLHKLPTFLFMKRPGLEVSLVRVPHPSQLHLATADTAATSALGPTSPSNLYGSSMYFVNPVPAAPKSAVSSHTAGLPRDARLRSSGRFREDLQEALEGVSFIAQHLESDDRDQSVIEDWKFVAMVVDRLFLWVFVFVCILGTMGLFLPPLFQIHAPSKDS
# Measurement Description: Antagonist activity at rat alpha3beta4 nAChR expressed in HEK293 cells assessed as inhibition of epibatadine-induced effect after 30 mins by fluorescent membrane potential assay
# Type: cell-based
Bridge positions count the residues as written; N and C are the ends. Square brackets hold non-standard residues; d marks the D form. Peptide text beside a SMILES is read from it. Nle = CCCC[C@H](N)C(=O)O; Nva = CCC[C@H](N)C(=O)O; Abu = CC[C@H](N)C(=O)O
Answers are plain numbers, as −log10 of the molar value.

Some solved cases for reference:
INSERT INTO results (compound, metric, recorded_result) VALUES
  ('CCC[C@@H]1NC(=O)[C@H](CC)NC(=O)[C@H](Cc2ccccc2)NC(=O)[C@@H]2CSSC[C@H](NC(=O)CN)C(=O)N[C@@H](CSSC[C@@H](C(=O)O)NC(=O)[C@H](Cc3ccc(O)cc3)NC1=O)C(=O)N[C@@H](CO)C(=O)N[C@@H](Cc1cnc[nH]1)C(=O)N1CCC[C@H]1C(=O)N[C@@H](CC)C(=O)N2 (H-GCCSHP[Abu]CF[Abu][Nva]YC-OH; disulfide 2-8, 3-13)', 'pIC50', 6.74),
  ('CCCC[C@@H]1NC(=O)[C@H](CC)NC(=O)[C@H](Cc2ccccc2)NC(=O)[C@@H]2CSSC[C@H](NC(=O)CN)C(=O)N[C@@H](CSSC[C@@H](C(=O)O)NC(=O)[C@H](Cc3ccc(O)cc3)NC1=O)C(=O)N[C@@H](CO)C(=O)N[C@@H](CCCC)C(=O)N1CCC[C@H]1C(=O)N[C@@H](CC)C(=O)N2 (H-GCCS[Nle]P[Abu]CF[Abu][Nle]YC-OH; disulfide 2-8, 3-13)', 'pIC50', 6.51),
  ('CCC[C@@H]1NC(=O)[C@H](CC)NC(=O)[C@H](Cc2ccccc2)NC(=O)[C@@H]2CSSC[C@H](NC(=O)CN)C(=O)N[C@@H](CSSC[C@@H](C(=O)O)NC(=O)[C@H](Cc3ccc(O)cc3)NC1=O)C(=O)N[C@@H](CO)C(=O)N[C@@H](Cc1cnc[nH]1)C(=O)N1CCC[C@H]1C(=O)N1CCC[C@H]1C(=O)N2 (H-GCCSHPPCF[Abu][Nva]YC-OH; disulfide 2-8, 3-13)', 'pIC50', 6.53),
  ('CCCC[C@@H]1NC(=O)[C@H](CC)NC(=O)[C@H]([C@H](C)CC)NC(=O)[C@@H]2CSSC[C@H](NC(=O)CN)C(=O)N[C@@H](CSSC[C@@H](C(=O)O)NC(=O)[C@H](Cc3ccc(O)cc3)NC1=O)C(=O)N[C@@H](CO)C(=O)N[C@@H](Cc1cnc[nH]1)C(=O)N1CCC[C@H]1C(=O)N[C@@H](CC)C(=O)N2', 'pIC50', 6.33),
  ('CCC[C@@H]1NC(=O)[C@H](CC)NC(=O)[C@H]([C@H](C)CC)NC(=O)[C@@H]2CSSC[C@H](NC(=O)CN)C(=O)N[C@@H](CSSC[C@@H](C(=O)O)NC(=O)[C@H](Cc3ccc(O)cc3)NC1=O)C(=O)N[C@@H](CO)C(=O)N[C@@H](Cc1cnc[nH]1)C(=O)N1CCC[C@H]1C(=O)N[C@@H](CC)C(=O)N2', 'pIC50', 5.71);

Consider the following items and state reported pIC50 for each.
1. CCCC[C@@H]1NC(=O)[C@H](CC)NC(=O)[C@H](Cc2ccccc2)NC(=O)[C@@H]2CSSC[C@H](NC(=O)CN)C(=O)N[C@@H](CSSC[C@@H](C(=O)O)NC(=O)[C@H](Cc3ccc(O)cc3)NC1=O)C(=O)N[C@@H](CO)C(=O)N[C@@H](CCCC)C(=O)N1CCC[C@H]1C(=O)N1CCC[C@H]1C(=O)N2 (H-GCCS[Nle]PPCF[Abu][Nle]YC-OH; disulfide 2-8, 3-13)
2. CCCC[C@@H]1NC(=O)[C@H](Cc2c[nH]c3ccccc23)NC(=O)[C@H](Cc2ccccc2)NC(=O)[C@@H]2CSSC[C@H](NC(=O)CN)C(=O)N[C@@H](CSSC[C@@H](C(=O)O)NC(=O)[C@H](Cc3ccc(O)cc3)NC1=O)C(=O)N[C@@H](CO)C(=O)N[C@@H](Cc1cnc[nH]1)C(=O)N1CCC[C@H]1C(=O)N[C@@H](CC)C(=O)N2 (H-GCCSHP[Abu]CFW[Nle]YC-OH; disulfide 2-8, 3-13)
3. CCCC[C@@H]1NC(=O)[C@H](CO)NC(=O)[C@@H]2CSSC[C@@H](C(=O)O)NC(=O)[C@H](Cc3ccc(O)cc3)NC(=O)[C@H](CCC)NC(=O)[C@H](CC)NC(=O)[C@H](Cc3ccccc3)NC(=O)[C@H](CSSC[C@H](NC(=O)CN)C(=O)N2)NC(=O)[C@H](CC)NC(=O)[C@@H]2CCCN2C1=O (H-GCCS[Nle]P[Abu]CF[Abu][Nva]YC-OH; disulfide 2-8, 3-13)
4. CCCC[C@@H]1NC(=O)[C@H](CC)NC(=O)[C@H](Cc2ccccc2)NC(=O)[C@@H]2CSSC[C@H](NC(=O)CN)C(=O)N[C@@H](CSSC[C@@H](C(=O)O)NC(=O)[C@H](Cc3ccc(O)cc3)NC1=O)C(=O)N[C@@H](CO)C(=O)N[C@@H](Cc1cnc[nH]1)C(=O)N1CCC[C@H]1C(=O)N[C@@H](CC)C(=O)N2 (H-GCCSHP[Abu]CF[Abu][Nle]YC-OH; disulfide 2-8, 3-13)
5. CCCC[C@@H]1NC(=O)[C@H](CC)NC(=O)[C@H](Cc2ccccc2)NC(=O)[C@@H]2CSSC[C@H](NC(=O)CN)C(=O)N[C@@H](CSSC[C@@H](C(=O)O)NC(=O)[C@H](Cc3ccc(O)cc3)NC1=O)C(=O)N[C@@H](CO)C(=O)N[C@@H](Cc1cnc[nH]1)C(=O)N1CCC[C@H]1C(=O)N1CCC[C@H]1C(=O)N2 (H-GCCSHPPCF[Abu][Nle]YC-OH; disulfide 2-8, 3-13)

stdout:
[6.40, 5.76, 6.49, 6.51, 6.33]

stdin: Recall the recorded pIC50 for CCCC[C@@H]1NC(=O)[C@H](CO)NC(=O)[C@@H]2CSSC[C@@H](C(=O)O)NC(=O)[C@H](Cc3ccc(O)cc3)NC(=O)[C@H](CCC)NC(=O)[C@H](CC)NC(=O)[C@H](Cc3ccccc3)NC(=O)[C@H](CSSC[C@H](NC(=O)CN)C(=O)N2)NC(=O)[C@@H]2CCCN2C(=O)[C@@H]2CCCN2C1=O (H-GCCS[Nle]PPCF[Abu][Nva]YC-OH; disulfide 2-8, 3-13) with Neuronal acetylcholine receptor; alpha3/beta4 (Rattus norvegicus, UniProt P04757+P12392) and state it.
stdout: 6.46
